Tested on: Hela cells
assay method text: Activity in Hela cells (interferon-γ induced, kynurenine readout with Ehrlich's reagent)
Type: cell-based
study conditions: Homo sapiens, interferon-γ 50 ng/mL, tryptophan 16 mg/L, 48 hours, absorption at 480 nm
pIC50: −log10 of the molar value.
Here, each record is paired with measured pIC50 data.

Consider the following illustrative entries.
INSERT INTO assay_data (molecule, property, recorded_measurement) VALUES
  ('Cc1ccc(NS(=O)(=O)C2CC23CCC(c2ccnc4ccc(F)cc24)CC3)cc1 (stereo not shown) [Compound 18]', 'pIC50', '8.00 to 10.00'),
  ('COCCOc1ccc(NC(=O)[C@H]2C[C@]23CC[C@H](c2ccnc4cc(C)c(F)cc42)CC3)cc1 (single isomer, unassigned) [Compound 98]', 'pIC50', '8.00 to 10.00'),
  ('Cc1cc2nccc(C3CCC4(CC3)CC4C(=O)Nc3ccc(C(F)(F)F)cc3)c2cc1F (stereo not shown) [Compound 82]', 'pIC50', '8.00 to 10.00'),
  ('COc1ccc(NC(=O)C2CC23CCC(c2ccnc4cc(C)c(F)cc24)CC3)cc1 (stereo not shown) [Compound 84]', 'pIC50', '8.00 to 10.00'),
  ('Cc1ccc(NC(=O)C2CC23CCC(c2ccnc4cc(C)c(F)cc24)CC3)cc1 (stereo not shown) [Compound 83]', 'pIC50', '8.00 to 10.00');

Task item: Give the measured pIC50 for O=C(NCc1ccc(Cl)cc1)C1CC12CCC(c1ccnc3ccc(F)cc13)CC2 (stereo not shown) [Compound 3]
Reply: < 7.00

Task item: Give the measured pIC50 for COc1cc2nccc([C@H]3CC[C@@]4(CC3)C[C@H]4C(=O)Nc3ccc(Cl)cc3)c2cc1F (single isomer, unassigned) [Compound 109]
Reply: < 7.00

The reported numbers originate from patent US11111230B2.
